The measurements presented in this section are drawn from paper PMC13242297.

Tested on: MCF10A cells
test_method_notes: Cell Titer-Glo 3D cell viability assay, 48 h, MCF10A
Assay type: cell-based
run_parameters: Homo sapiens, MCF-10A; MCF10A, 48 h viability; read-out: IC50
Method: Cell Culture: Cell viability was assessed using the MCF7 and MCF10A cell lines. Cells were maintained in relevant media throughout the study, in an incubator set to 37°C and 5% CO2, with media changes every 2–3 days. […] Compound plate preparation: […] Plates were sealed and stored at −4°C prior to use. […] Luminescence signal was measured using a CLARIOstar Plus microplate reader (BMG Labtech). Data Analysis: Raw relative luminescence unit (RLU) data were de-randomised prior to background subtraction. […]
pIC50: −log10 of the molar value.
experimental_endpoint: pIC50

>  <structure_as_smiles>
NS(=O)(=O)OC[C@@H]1C[C@@H](n2ccc3c(N[C@H]4CCc5ccccc54)ncnc32)C[C@@H]1O

>  <value_reported>
< 5.60

$$$$

Shifting focus to the compound that follows.
Would you mind telling me what pIC50 value was observed for Nc1ccn([C@@H]2O[C@H](CO)[C@@H](O)C2(F)F)c(=O)n1 ? > 6.60

====

test_method_notes: Cell Titer-Glo 3D cell viability assay, 48 h, MCF10A
Type: cell-based
run_parameters: human, MCF10A cells; MCF10A, 2.5 uM, 48 h, % of vehicle control
experimental_endpoint: viability at 48 h, […]

May I ask what viability at 48 h, […] has been recorded for CC[C@@H]1C(=O)N(C)c2cnc(Nc3ccc(C(=O)NC4CCN(C)CC4)cc3OC)nc2N1C1CCCC1 [BI 2536] ? 33.9%

====

test_method_notes: Cell Titer-Glo 3D cell viability assay, 48 h, MCF10A
Type: cell-based
run_parameters: human, MCF10A cells; MCF10A, 0.25 uM, 48 h, % of vehicle control
Protocol: Cell Culture: Cell viability was assessed using the MCF7 and MCF10A cell lines. Cells were maintained in relevant media throughout the study, in an incubator set to 37°C and 5% CO2, with media changes every 2–3 days. […] Compound plate preparation: […] Plates were sealed and stored at −4°C prior to use. […] Luminescence signal was measured using a CLARIOstar Plus microplate reader (BMG Labtech). Data Analysis: Raw relative luminescence unit (RLU) data were de-randomised prior to background subtraction. […]
experimental_endpoint: viability at 48 h, […] (%)
Numbers only, in %.

I have this compound here, CC[C@@H]1C(=O)N(C)c2cnc(Nc3ccc(C(=O)NC4CCN(C)CC4)cc3OC)nc2N1C1CCCC1 , and I need its recorded viability at 48 h, […]. 72.3

====

test_method_notes: Cell Titer-Glo 3D cell viability assay, 48 h, MCF10A
Format: cell-based
run_parameters: human, MCF10A cells; MCF10A, 0.025 uM, 48 h, % of vehicle control
experimental_endpoint: viability at 48 h, […]
Answer with the figure and its unit, nothing else.

Report viability at 48 h, […] for CC[C@@H]1C(=O)N(C)c2cnc(Nc3ccc(C(=O)NC4CCN(C)CC4)cc3OC)nc2N1C1CCCC1 please. 67.7%

====

test_method_notes: Cell Titer-Glo 3D cell viability assay, 48 h, MCF10A
Assay type: cell-based
run_parameters: human, MCF10A cells; MCF10A, 0.0025 uM, 48 h, % of vehicle control
experimental_endpoint: viability at 48 h, […]

Please look up its viability at 48 h, […]: CC[C@@H]1C(=O)N(C)c2cnc(Nc3ccc(C(=O)NC4CCN(C)CC4)cc3OC)nc2N1C1CCCC1 92.4%
